- tgt: E477R mutant yeast BC domain (Saccharomyces cerevisiae, UniProt Q00955, E477R)
- Construct: Residues 2-581 of yeast ACC were sub-cloned into the pET28a vector; made in house; host or cells: E. coli
- Sequence (Q00955 2-581 E477R): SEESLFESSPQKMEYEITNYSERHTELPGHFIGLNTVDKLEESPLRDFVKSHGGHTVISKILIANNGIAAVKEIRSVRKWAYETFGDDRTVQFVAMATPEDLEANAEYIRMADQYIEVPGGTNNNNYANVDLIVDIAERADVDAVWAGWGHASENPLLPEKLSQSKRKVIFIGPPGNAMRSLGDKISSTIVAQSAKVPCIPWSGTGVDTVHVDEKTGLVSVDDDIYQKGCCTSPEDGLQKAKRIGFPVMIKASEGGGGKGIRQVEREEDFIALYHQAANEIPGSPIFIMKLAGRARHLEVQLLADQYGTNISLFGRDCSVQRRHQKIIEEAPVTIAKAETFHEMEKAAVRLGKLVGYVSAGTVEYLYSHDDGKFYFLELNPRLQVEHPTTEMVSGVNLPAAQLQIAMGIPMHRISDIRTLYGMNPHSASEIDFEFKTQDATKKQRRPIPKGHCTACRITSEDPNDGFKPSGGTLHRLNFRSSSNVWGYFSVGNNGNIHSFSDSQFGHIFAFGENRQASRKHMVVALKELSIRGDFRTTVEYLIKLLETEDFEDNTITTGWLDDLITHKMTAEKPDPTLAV
- assay-notes: fluorescence-based binding assay, E477R mutant
- experimental-context: 50 nM enzyme
readout-name: Kd (nM)

{"columns": ["chemical-structure", "result-units", "endpoint-result"],
 "data": [
  ["CO[C@H]1CCCC[C@@H](c2ccccc2)OC(=O)[C@@H](C)[C@@]2(O)O[C@H]([C@@H](C)[C@H](O)[C@H]2OC)[C@@H](C)/C=C/[C@H]1OC", "nM", 274]
]}

----------
- tgt: W487R mutant yeast BC domain (Saccharomyces cerevisiae, UniProt Q00955, W487R)
- Construct: Residues 2-581 of yeast ACC were sub-cloned into the pET28a vector; made in house; host or cells: E. coli
- Sequence (Q00955 2-581 W487R): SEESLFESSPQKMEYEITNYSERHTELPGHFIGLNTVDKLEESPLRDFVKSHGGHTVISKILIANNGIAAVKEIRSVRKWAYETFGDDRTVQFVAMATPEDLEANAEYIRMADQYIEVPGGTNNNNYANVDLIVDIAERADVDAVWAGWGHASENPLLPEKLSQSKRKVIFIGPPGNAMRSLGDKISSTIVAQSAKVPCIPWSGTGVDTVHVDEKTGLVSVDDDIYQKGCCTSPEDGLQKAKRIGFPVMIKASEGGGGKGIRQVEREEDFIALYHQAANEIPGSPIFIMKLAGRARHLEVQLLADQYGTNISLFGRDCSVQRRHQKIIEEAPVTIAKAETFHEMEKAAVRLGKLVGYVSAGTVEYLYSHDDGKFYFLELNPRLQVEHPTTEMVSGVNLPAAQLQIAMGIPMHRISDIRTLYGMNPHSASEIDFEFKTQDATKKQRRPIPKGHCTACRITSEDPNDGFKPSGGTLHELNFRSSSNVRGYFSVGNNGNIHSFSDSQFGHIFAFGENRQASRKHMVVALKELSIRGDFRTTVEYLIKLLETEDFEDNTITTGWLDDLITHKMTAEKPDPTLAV
- assay-notes: radioactive binding assay, W487R mutant
- experimental-context: up to 60 nM soraphen A, 10 nM protein, read-out: Kd (nM) (radiactive assay)

{"columns": ["chemical-structure", "tgt", "Kd"],
 "data": [
  ["CO[C@H]1CCCC[C@@H](c2ccccc2)OC(=O)[C@@H](C)[C@@]2(O)O[C@H]([C@@H](C)[C@H](O)[C@H]2OC)[C@@H](C)/C=C/[C@H]1OC", "W487R mutant yeast BC domain (Saccharomyces cerevisiae, UniProt Q00955, W487R)", "> 60 nM"]
]}

----------
- tgt: Wild-type yeast BC domain (Saccharomyces cerevisiae, UniProt Q00955)
- Construct: Residues 2-581 of yeast ACC were sub-cloned into the pET28a vector; made in house; host or cells: E. coli BL21(DE3) Rosetta
- Sequence (Q00955 2-581): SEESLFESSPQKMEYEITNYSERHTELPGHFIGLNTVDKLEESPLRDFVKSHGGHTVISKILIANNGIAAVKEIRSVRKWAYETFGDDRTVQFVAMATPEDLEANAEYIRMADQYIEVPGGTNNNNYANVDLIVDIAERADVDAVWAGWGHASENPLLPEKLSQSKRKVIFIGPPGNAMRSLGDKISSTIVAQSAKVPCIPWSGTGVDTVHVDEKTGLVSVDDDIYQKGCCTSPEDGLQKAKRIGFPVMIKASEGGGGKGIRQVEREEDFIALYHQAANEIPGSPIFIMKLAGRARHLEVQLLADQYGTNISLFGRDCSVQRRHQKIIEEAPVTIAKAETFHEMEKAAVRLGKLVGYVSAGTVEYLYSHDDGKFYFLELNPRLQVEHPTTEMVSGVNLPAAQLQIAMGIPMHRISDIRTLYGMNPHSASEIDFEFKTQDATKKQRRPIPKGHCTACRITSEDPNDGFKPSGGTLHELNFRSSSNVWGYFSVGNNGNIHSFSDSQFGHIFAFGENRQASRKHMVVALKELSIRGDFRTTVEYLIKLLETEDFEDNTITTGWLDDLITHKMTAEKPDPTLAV
- assay-notes: radioactive binding assay, wild-type yeast BC domain
- experimental-context: read-out: Kd (nM) (radiactive assay)

{"columns": ["chemical-structure", "Kd"],
 "data": [
  ["CO[C@H]1CCCC[C@@H](c2ccccc2)OC(=O)[C@@H](C)[C@@]2(O)O[C@H]([C@@H](C)[C@H](O)[C@H]2OC)[C@@H](C)/C=C/[C@H]1OC", "2 nM"]
]}
